# assaySystem: DNA-PK (Homo sapiens, UniProt P78527)
# protocolDetails: DNA-PK inhibition assay (ELISA, phosphorylation of GST-p53N66)
# Type: biochemical, Mammalian (isolated from HeLa cell nuclear extract)
# cond: mean IC50; read-out: IC50
pIC50: −log10 of the molar value.
Quick reference for pIC50 among some molecules

Past entries and their recorded results:
1. CC(C)NC(=O)CN1CCN(c2ccc(-c3cccc4c(=O)cc(N5CCOCC5)oc34)c3sc4ccccc4c23)CC1 = > 7.30
2. CC(=O)C(C)N1CCN(c2ccc(-c3cccc4c(=O)cc(N5CCOCC5)oc34)c3sc4ccccc4c23)CC1 (stereo not shown) = > 7.30
3. O=c1cc(N2CCOCC2)oc2c(-c3ccc(N4CCN(CC5CC5)CC4)c4c3sc3ccccc34)cccc12 = > 7.30

Value of measured pIC50 for the entry COCCN1CCN(c2ccc(-c3cccc4c(=O)cc(N5CCOCC5)oc34)c3sc4ccccc4c23)CC1 : > 7.30

Value of measured pIC50 for the entry CCS(=O)(=O)N1CCN(c2ccc(-c3cccc4c(=O)cc(N5CCOCC5)oc34)c3sc4ccccc4c23)CC1 : > 7.30

Value of measured pIC50 for the entry CCCN1CCN(c2ccc(-c3cccc4c(=O)cc(N5CCOCC5)oc34)c3sc4ccccc4c23)CC1 : > 7.30

Value of measured pIC50 for the entry CS(=O)(=O)N1CCN(c2ccc(-c3cccc4c(=O)cc(N5CCOCC5)oc34)c3sc4ccccc4c23)CC1 : > 7.30

----------
# assaySystem: DNA-PK (Homo sapiens, UniProt P78527)
# protocolDetails: DNA-PK inhibition assay (ELISA, phosphorylation of GST-p53N66)
# Type: biochemical, Mammalian (isolated from HeLa cell nuclear extract)
# cond: mean; DNA-PK from HeLa nuclear extract, 50 μM ATP; read-out: IC50 (mean IC50 of the compounds)
measure: IC50 (nM)

Past entries and their recorded results:
1. CS(=O)(=O)N1CCN(c2ccc(-c3cccc4c(=O)cc(N5CCOCC5)oc34)c3sc4ccccc4c23)CC1 = 24
2. NCCN1CCN(c2ccc(-c3cccc4c(=O)cc(N5CCOCC5)oc34)c3sc4ccccc4c23)CC1 = 7
3. COCCN1CCN(c2ccc(-c3cccc4c(=O)cc(N5CCOCC5)oc34)c3sc4ccccc4c23)CC1 = 6
4. CC(C)NC(=O)CN1CCN(c2ccc(-c3cccc4c(=O)cc(N5CCOCC5)oc34)c3sc4ccccc4c23)CC1 = 7
5. COCCOCCN1CCN(c2ccc(-c3cccc4c(=O)cc(N5CCOCC5)oc34)c3sc4ccccc4c23)CC1 = 4
6. CC(=O)C(C)N1CCN(c2ccc(-c3cccc4c(=O)cc(N5CCOCC5)oc34)c3sc4ccccc4c23)CC1 (centres unmarked) = 11

(a) O=c1cc(N2CCOCC2)oc2c(-c3ccc(N4CCN(CC5CC5)CC4)c4c3sc3ccccc34)cccc12
(b) O=c1cc(N2CCOCC2)oc2c(-c3ccc(N4CCN(CCO)CC4)c4c3sc3ccccc34)cccc12
Data request: Select one: a or b . Criterion: greater recorded IC50. Return value: the label identifying the chosen record.
Data returned: a

(I) CCCOCCN1CCN(c2ccc(-c3cccc4c(=O)cc(N5CCOCC5)oc34)c3sc4ccccc4c23)CC1
(II) O=c1cc(N2CCOCC2)oc2c(-c3ccc(N4CCN(C5CCCCC5O)CC4)c4c3sc3ccccc34)cccc12 (centres unmarked)
Data request: Look at I and II . Which one has the lower recorded IC50 number? Return value: the label identifying the chosen record.
Data returned: I

----------
# assaySystem: DNA-PK (Homo sapiens, UniProt P78527)
# protocolDetails: DNA-PK inhibition assay (ELISA, phosphorylation of GST-p53N66)
# Assay type: biochemical, Mammalian (isolated from HeLa cell nuclear extract)
# cond: mean IC50; read-out: IC50
measure: IC50

1) COCCOCCN1CCN(c2ccc(-c3cccc4c(=O)cc(N5CCOCC5)oc34)c3sc4ccccc4c23)CC1 [Compound 2b] = < 0.05 µM
2) O=c1cc(N2CCOCC2)oc2c(-c3ccc(N4CCN(CCO)CC4)c4c3sc3ccccc34)cccc12 [Compound 2m] = < 0.05 µM

Next, consider the following molecule.
Value of measured IC50 for the entry CCOCCN1CCN(c2ccc(-c3cccc4c(=O)cc(N5CCOCC5)oc34)c3sc4ccccc4c23)CC1 [Compound 2e] : < 0.05 µM

----------
# assaySystem: DNA-PK (Homo sapiens, UniProt P78527)
# protocolDetails: DNA-PK inhibition assay (ELISA, phosphorylation of GST-p53N66)
# Assay type: biochemical, Mammalian (isolated from HeLa cell nuclear extract)
# cond: mean; DNA-PK from HeLa nuclear extract, 50 μM ATP; read-out: IC50 (mean IC50 of the compounds)
measure: IC50 (nM)

1. O=c1cc(N2CCOCC2)oc2c(-c3ccc(N4CCN(CC5CCCO5)CC4)c4c3sc3ccccc34)cccc12 (stereo not shown) = 21

(A) CCOCCN1CCN(c2ccc(-c3cccc4c(=O)cc(N5CCOCC5)oc34)c3sc4ccccc4c23)CC1
(B) CCCN1CCN(c2ccc(-c3cccc4c(=O)cc(N5CCOCC5)oc34)c3sc4ccccc4c23)CC1
(C) CCS(=O)(=O)N1CCN(c2ccc(-c3cccc4c(=O)cc(N5CCOCC5)oc34)c3sc4ccccc4c23)CC1
Data request: List items by IC50 in falling order. Please respond with the labels ordered as the question requires.
Data returned: C, B, A
(C: 21 nM, B: 11 nM, A: 7 nM)
